- targetSystem: Lipoprotein lipase (LPL) (Bos taurus)
- Construct: Dr. Gunilla Olivecrona, Umea University (gift)
- assayName: Lipoprotein lipase (LPL) inhibition assay, 3H-triolein/intralipid substrate
- Format: biochemical
- assaySetup: read-out: LPL inhibition (% inh. at 50 μM)
- Text: Lipoprotein Lipase (LPL) [Classified as EC 3.1.1.34 in accordance with the Recommendations of the Nomenclature Committee of the International Union of Biochemistry and Molecular Biology (available on the World Wide Web at the following address: http://www.chem.qmw.ac.uk/iubmb/enzyme/)] Materials. […]

[
  {
    "compound": "CC1c2ccccc2CCN1NC(=O)Oc1ccc(Cl)cc1 (stereo not drawn)",
    "inhibition at 50 µM [%]": 10
  },
  {
    "compound": "CC(C)(C)c1ccc(OC(=O)NN2CCc3ccccc3C2)cc1",
    "inhibition at 50 µM [%]": 0
  },
  {
    "compound": "Cc1cccc(OC(=O)NN2CCc3ccccc3C2)c1",
    "inhibition at 50 µM [%]": 5
  }
]

---

- targetSystem: Hormone-sensitive lipase (HSL) (Homo sapiens, UniProt Q05469)
- Sequence (Q05469 whole entry): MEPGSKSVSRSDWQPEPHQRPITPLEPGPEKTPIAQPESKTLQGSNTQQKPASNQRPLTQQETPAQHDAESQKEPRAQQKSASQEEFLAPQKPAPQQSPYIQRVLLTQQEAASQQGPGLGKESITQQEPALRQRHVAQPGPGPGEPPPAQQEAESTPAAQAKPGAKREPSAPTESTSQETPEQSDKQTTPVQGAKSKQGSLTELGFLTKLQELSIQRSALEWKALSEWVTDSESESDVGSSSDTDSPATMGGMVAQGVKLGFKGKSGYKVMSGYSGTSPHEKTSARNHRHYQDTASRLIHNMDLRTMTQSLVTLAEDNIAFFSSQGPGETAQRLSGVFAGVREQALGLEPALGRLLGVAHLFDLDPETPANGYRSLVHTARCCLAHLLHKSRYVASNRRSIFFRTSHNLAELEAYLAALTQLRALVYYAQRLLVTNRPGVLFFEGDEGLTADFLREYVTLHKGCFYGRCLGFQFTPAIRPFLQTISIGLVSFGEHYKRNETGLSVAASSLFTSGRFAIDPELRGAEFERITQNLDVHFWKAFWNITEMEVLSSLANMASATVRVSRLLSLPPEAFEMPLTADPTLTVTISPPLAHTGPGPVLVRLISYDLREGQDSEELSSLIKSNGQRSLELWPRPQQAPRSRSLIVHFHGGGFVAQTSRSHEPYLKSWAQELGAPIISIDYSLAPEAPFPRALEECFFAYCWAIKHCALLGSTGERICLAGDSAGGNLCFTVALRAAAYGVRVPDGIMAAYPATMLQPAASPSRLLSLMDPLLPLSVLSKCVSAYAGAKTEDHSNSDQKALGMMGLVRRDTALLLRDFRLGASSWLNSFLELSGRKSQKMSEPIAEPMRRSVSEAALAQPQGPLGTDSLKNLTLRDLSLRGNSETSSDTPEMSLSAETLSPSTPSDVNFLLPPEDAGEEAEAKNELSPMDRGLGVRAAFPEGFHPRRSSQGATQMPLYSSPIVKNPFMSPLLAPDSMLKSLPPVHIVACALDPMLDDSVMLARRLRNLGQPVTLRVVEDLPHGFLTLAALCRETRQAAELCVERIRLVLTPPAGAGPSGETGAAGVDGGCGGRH
- assayName: Hormone-sensitive lipase (HSL) inhibition assay, 3H-labeled triolein or MOME substrate
- Assay type: biochemical
- assaySetup: read-out: HSL inhibition (IC50)
Structures can show the parent of a compound that is named as a salt.

[
  {
    "molecule": "O=C(NN1CCc2ccccc2C1)Oc1ccc(C(=O)c2ccccc2)cc1",
    "targetSystem": "Hormone-sensitive lipase (HSL) (Homo sapiens, UniProt Q05469)",
    "IC50": "> 10 µM"
  },
  {
    "molecule": "Nc1ccc(OC(=O)NN2CCc3ccccc3C2)cc1 [Example 18, Hydrochloride]",
    "targetSystem": "Hormone-sensitive lipase (HSL) (Homo sapiens, UniProt Q05469)",
    "IC50": "7.7 µM"
  },
  {
    "molecule": "CCCc1ccc(OC(=O)NN2CCc3ccccc3C2)cc1",
    "targetSystem": "Hormone-sensitive lipase (HSL) (Homo sapiens, UniProt Q05469)",
    "IC50": "0.24 µM"
  },
  {
    "molecule": "Cc1ccc(C(=O)c2ccc(OC(=O)NN3CCc4ccccc4C3)cc2)cc1",
    "targetSystem": "Hormone-sensitive lipase (HSL) (Homo sapiens, UniProt Q05469)",
    "IC50": "> 10 µM"
  },
  {
    "molecule": "CCC(C)c1ccc(OC(=O)NN2CCc3ccccc3C2)cc1 (stereo not shown)",
    "targetSystem": "Hormone-sensitive lipase (HSL) (Homo sapiens, UniProt Q05469)",
    "IC50": "0.17 µM"
  },
  {
    "molecule": "Cc1ccccc1OC(=O)NN1CCc2ccccc2C1",
    "targetSystem": "Hormone-sensitive lipase (HSL) (Homo sapiens, UniProt Q05469)",
    "IC50": "1.6 µM"
  },
  {
    "molecule": "CN(C)CCc1ccc(OC(=O)NN2CCc3ccccc3C2)cc1",
    "targetSystem": "Hormone-sensitive lipase (HSL) (Homo sapiens, UniProt Q05469)",
    "IC50": "> 10 µM"
  },
  {
    "molecule": "O=C(NN1CCc2ccccc2C1)Oc1c(Cl)cccc1Cl",
    "targetSystem": "Hormone-sensitive lipase (HSL) (Homo sapiens, UniProt Q05469)",
    "IC50": "> 10 µM"
  },
  {
    "molecule": "O=C(NN1CCc2ccccc2C1)Oc1ccccc1Br",
    "targetSystem": "Hormone-sensitive lipase (HSL) (Homo sapiens, UniProt Q05469)",
    "IC50": "0.8 µM"
  },
  {
    "molecule": "CC(=O)c1ccc(OC(=O)NN2CCc3ccccc3C2)cc1",
    "targetSystem": "Hormone-sensitive lipase (HSL) (Homo sapiens, UniProt Q05469)",
    "IC50": "> 10 µM"
  },
  {
    "molecule": "O=C(NN1CCc2ccccc2C1)Oc1ccc(OC(F)(F)F)cc1",
    "targetSystem": "Hormone-sensitive lipase (HSL) (Homo sapiens, UniProt Q05469)",
    "IC50": "3.4 µM"
  },
  {
    "molecule": "CC(=O)Nc1ccc(OC(=O)NN2CCc3ccccc3C2)cc1",
    "targetSystem": "Hormone-sensitive lipase (HSL) (Homo sapiens, UniProt Q05469)",
    "IC50": "> 10 µM"
  },
  {
    "molecule": "O=C(NN1CCc2ccccc2C1)Oc1ccc(Br)cc1",
    "targetSystem": "Hormone-sensitive lipase (HSL) (Homo sapiens, UniProt Q05469)",
    "IC50": "0.039 µM"
  }
]

---

- targetSystem: Lipoprotein lipase (LPL) (Bos taurus)
- Construct: Dr. Gunilla Olivecrona, Umea University (gift)
- Sequence (P11151 29-478): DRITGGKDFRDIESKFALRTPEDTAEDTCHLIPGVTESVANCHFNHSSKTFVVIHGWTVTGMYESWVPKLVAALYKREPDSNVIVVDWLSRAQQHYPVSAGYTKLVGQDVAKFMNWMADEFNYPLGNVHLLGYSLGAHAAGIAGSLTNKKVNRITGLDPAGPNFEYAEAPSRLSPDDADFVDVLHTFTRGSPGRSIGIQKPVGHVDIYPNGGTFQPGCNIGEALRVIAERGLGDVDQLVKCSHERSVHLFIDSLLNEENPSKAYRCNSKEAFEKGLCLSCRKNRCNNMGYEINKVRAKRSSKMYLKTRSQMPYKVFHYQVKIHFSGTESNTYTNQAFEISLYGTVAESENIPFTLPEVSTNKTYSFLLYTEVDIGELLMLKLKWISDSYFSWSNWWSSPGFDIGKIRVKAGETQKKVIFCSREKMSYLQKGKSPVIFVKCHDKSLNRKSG
- assayName: Lipoprotein lipase (LPL) inhibition assay, 3H-triolein/intralipid substrate
- Format: biochemical
- assaySetup: read-out: LPL inhibition (% inh. at 50 μM)
Outcome label depends on inhibition at 50 µM relative to 3%: at/above gives fulfilled, below gives not fulfilled.

[
  {
    "molecule": "CCC(C)(C)c1ccc(OC(=O)NN2CCc3ccccc3C2)cc1 [Example 31]",
    "categoryLabel": "not fulfilled"
  },
  {
    "molecule": "Cc1ccc(OC(=O)NN2CCc3ccccc3C2)cc1 [Example 8]",
    "categoryLabel": "not fulfilled"
  },
  {
    "molecule": "COc1ccc(OC(=O)NN2CCc3ccccc3C2)cc1 [Example 3]",
    "categoryLabel": "not fulfilled"
  },
  {
    "molecule": "COC(=O)Cc1ccc(OC(=O)NN2CCc3ccccc3C2)cc1 [Example 42]",
    "categoryLabel": "fulfilled"
  },
  {
    "molecule": "O=C(NN1CCc2ccccc2C1)Oc1ccc(Br)cc1 [Example 5]",
    "categoryLabel": "fulfilled"
  },
  {
    "molecule": "CCC(C)c1ccc(OC(=O)NN2CCc3ccccc3C2)cc1 (stereo not shown) [Example 33]",
    "categoryLabel": "not fulfilled"
  },
  {
    "molecule": "O=C(NN1CCc2ccccc2C1)Oc1ccc(Cl)cc1 [Example 6]",
    "categoryLabel": "not fulfilled"
  },
  {
    "molecule": "O=C(NN1CCc2ccccc2C1)Oc1ccc(OC(F)(F)F)cc1 [Example 40]",
    "categoryLabel": "not fulfilled"
  }
]

---

- targetSystem: Lipoprotein lipase (LPL) (Bos taurus, UniProt P11151)
- Construct: Dr. Gunilla Olivecrona, Umea University (gift)
- Sequence (P11151 29-478): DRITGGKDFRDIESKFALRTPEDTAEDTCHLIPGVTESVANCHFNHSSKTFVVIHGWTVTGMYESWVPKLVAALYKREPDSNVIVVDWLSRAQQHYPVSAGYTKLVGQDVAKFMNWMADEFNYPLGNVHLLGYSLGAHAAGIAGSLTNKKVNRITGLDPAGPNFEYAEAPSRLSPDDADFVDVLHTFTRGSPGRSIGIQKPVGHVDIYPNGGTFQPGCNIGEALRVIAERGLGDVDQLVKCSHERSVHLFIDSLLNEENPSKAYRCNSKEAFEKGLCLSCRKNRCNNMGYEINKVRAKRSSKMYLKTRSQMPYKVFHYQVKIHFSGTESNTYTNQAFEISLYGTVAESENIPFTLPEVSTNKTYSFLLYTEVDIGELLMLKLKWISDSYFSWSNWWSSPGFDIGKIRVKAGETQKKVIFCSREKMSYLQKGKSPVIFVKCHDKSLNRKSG
- assayName: Lipoprotein lipase (LPL) inhibition assay, 3H-triolein/intralipid substrate
- Type: biochemical
- assaySetup: read-out: LPL inhibition (% inh. at 50 μM)
Where a name gives a salt, the structure may show the parent alone.
Entries and their inhibition at 50 µM

[
  {
    "compound": "CCOC(=O)c1ccc(OC(=O)NN2CCc3ccccc3C2)cc1",
    "targetSystem": "Lipoprotein lipase (LPL) (Bos taurus, UniProt P11151)",
    "inhibition at 50 µM [%]": 0
  },
  {
    "compound": "COc1cc2c(cc1OC)CN(NC(=O)Oc1ccc(Cl)cc1)CC2",
    "targetSystem": "Lipoprotein lipase (LPL) (Bos taurus, UniProt P11151)",
    "inhibition at 50 µM [%]": 0
  },
  {
    "compound": "Nc1ccc(OC(=O)NN2CCc3ccccc3C2)cc1 [Example 18, Hydrochloride]",
    "targetSystem": "Lipoprotein lipase (LPL) (Bos taurus, UniProt P11151)",
    "inhibition at 50 µM [%]": 0
  },
  {
    "compound": "O=C(NN1CCc2ccccc2C1)Oc1c(Cl)cccc1Cl",
    "targetSystem": "Lipoprotein lipase (LPL) (Bos taurus, UniProt P11151)",
    "inhibition at 50 µM [%]": 7
  },
  {
    "compound": "CCCCCOc1ccc(OC(=O)NN2CCc3ccccc3C2)cc1",
    "targetSystem": "Lipoprotein lipase (LPL) (Bos taurus, UniProt P11151)",
    "inhibition at 50 µM [%]": 0
  },
  {
    "compound": "O=C(NN1CCc2ccccc2C1)Oc1ccc(C2CCCCC2)cc1",
    "targetSystem": "Lipoprotein lipase (LPL) (Bos taurus, UniProt P11151)",
    "inhibition at 50 µM [%]": 6
  },
  {
    "compound": "O=C(NN1CCc2ccccc2C1)Oc1ccccc1F",
    "targetSystem": "Lipoprotein lipase (LPL) (Bos taurus, UniProt P11151)",
    "inhibition at 50 µM [%]": 0
  },
  {
    "compound": "Cc1ccccc1OC(=O)NN1CCc2ccccc2C1",
    "targetSystem": "Lipoprotein lipase (LPL) (Bos taurus, UniProt P11151)",
    "inhibition at 50 µM [%]": 7
  },
  {
    "compound": "CC(C)(C)OC(=O)Nc1ccc(OC(=O)NN2CCc3ccccc3C2)cc1",
    "targetSystem": "Lipoprotein lipase (LPL) (Bos taurus, UniProt P11151)",
    "inhibition at 50 µM [%]": 0
  },
  {
    "compound": "O=C(NN1CCc2ccccc2C1)Oc1ccc(OCc2ccccc2)cc1",
    "targetSystem": "Lipoprotein lipase (LPL) (Bos taurus, UniProt P11151)",
    "inhibition at 50 µM [%]": 0
  },
  {
    "compound": "CC1Cc2ccccc2CN1NC(=O)Oc1ccc(Cl)cc1 (stereo not drawn)",
    "targetSystem": "Lipoprotein lipase (LPL) (Bos taurus, UniProt P11151)",
    "inhibition at 50 µM [%]": 4
  },
  {
    "compound": "O=C(NN1CCc2ccccc2C1)Oc1ccc(Oc2ccccc2)cc1",
    "targetSystem": "Lipoprotein lipase (LPL) (Bos taurus, UniProt P11151)",
    "inhibition at 50 µM [%]": 0
  },
  {
    "compound": "CCCOc1ccc(OC(=O)NN2CCc3ccccc3C2)cc1",
    "targetSystem": "Lipoprotein lipase (LPL) (Bos taurus, UniProt P11151)",
    "inhibition at 50 µM [%]": 2
  },
  {
    "compound": "O=C(NN1CCc2ccccc2C1)Oc1ccc(Cc2ccccc2)cc1",
    "targetSystem": "Lipoprotein lipase (LPL) (Bos taurus, UniProt P11151)",
    "inhibition at 50 µM [%]": 5
  },
  {
    "compound": "O=C(NN1CCc2ccccc2C1)Oc1ccc(F)cc1",
    "targetSystem": "Lipoprotein lipase (LPL) (Bos taurus, UniProt P11151)",
    "inhibition at 50 µM [%]": 0
  },
  {
    "compound": "CN(C(=O)Oc1ccc(Cl)cc1)N1CCc2ccccc2C1",
    "targetSystem": "Lipoprotein lipase (LPL) (Bos taurus, UniProt P11151)",
    "inhibition at 50 µM [%]": 5
  },
  {
    "compound": "CCCc1ccc(OC(=O)NN2CCc3ccccc3C2)cc1",
    "targetSystem": "Lipoprotein lipase (LPL) (Bos taurus, UniProt P11151)",
    "inhibition at 50 µM [%]": 4
  },
  {
    "compound": "CCCCOc1ccc(OC(=O)NN2CCc3ccccc3C2)cc1",
    "targetSystem": "Lipoprotein lipase (LPL) (Bos taurus, UniProt P11151)",
    "inhibition at 50 µM [%]": 6
  },
  {
    "compound": "COC(=O)c1ccc(OC(=O)NN2CCc3ccccc3C2)cc1",
    "targetSystem": "Lipoprotein lipase (LPL) (Bos taurus, UniProt P11151)",
    "inhibition at 50 µM [%]": 20
  },
  {
    "compound": "O=C(NN1CCc2ccccc2C1)Oc1ccccc1Br",
    "targetSystem": "Lipoprotein lipase (LPL) (Bos taurus, UniProt P11151)",
    "inhibition at 50 µM [%]": 7
  },
  {
    "compound": "COc1ccccc1OC(=O)NN1CCc2ccccc2C1",
    "targetSystem": "Lipoprotein lipase (LPL) (Bos taurus, UniProt P11151)",
    "inhibition at 50 µM [%]": 2
  }
]

Data origin, for the record: patent US20020082254A1
